system: CCRF-CEM leukemia; experiment: NCI-60 one-dose screen, 48 h (100 = growth as untreated, 0 = no growth, -100 = all killed); conditions: 10 µM unless noted
About 83,000 compounds went through this panel and 20% of them were active in at least one assay; those are over-represented in the sample as a whole.
Catalogue of growth values

# molecule, unit, growth
rows = [
    ("CC(C)=CCC[C@](C)(O)[C@H]1CC[C@]2(C)[C@@H]1CC[C@@H]1[C@@]3(C)C/C(=C/c4ccco4)C(=O)C(C)(C)[C@@H]3CC[C@]12C", "%", 101),
    ("CCNCCNc1cc(-c2ccc(C(F)(F)F)cc2)c(C#N)c2nc3ccccc3n12", "%", -42.9),
    ("COc1cc(OC)c(/C=C/C(=O)c2c(OC)cccc2OC)c(OC)c1", "%", 16.2),
    ("CCN1C(=O)N(CC)C2C1NN=c1s/c(=C\\c3ccccc3F)c(=O)n12 (centres undefined)", "%", 8.85),
    ("Cc1cc(C)c2c(c1)N(C)c1ncnc(-n3cnc4cc(C)ccc43)c1CC2C (centres undefined)", "%", 0.648),
    ("Cc1ccccc1/C=C/C(=O)c1cccc(OCCCCOc2cccc(C(=O)/C=C/c3ccccc3C)c2)c1", "%", 104),
    ("COc1cc(C2c3cc(OC(C)=O)c(OC)cc3CC3C(=O)OCC32)ccc1OC(C)=O (centres undefined)", "%", 92.4),
    ("O=C(C[C@]1(O)C(=O)Nc2ccccc21)c1cccc(C(F)(F)F)c1", "%", 97),
    ("COc1cc(OCc2cccc(Br)c2C)cc(OC)c1C=O", "%", 77),
]

###

tested on: HS 578T breast; assay: NCI-60 one-dose screen, 48 h (100 = growth as untreated, 0 = no growth, -100 = all killed); settings: 10 µM unless noted
About 83,000 compounds went through this panel and 20% of them were active in at least one assay; those are over-represented in the sample as a whole.
Each entry below carries its reported growth.
measured quantity: growth (%)

# item smiles, measured quantity, unit, value
measured = [
    ("C=CCOC(=O)Nc1cccn([C@H](Cc2ccccc2)C(=O)NCCC(C)C)c1=O", "growth", "%", 103),
    ("N#Cc1nc(-c2ccccc2)oc1S(=O)(=O)N1CCN(c2ccccc2)CC1", "growth", "%", 102),
    ("COC12C=C/C(=C(/C(=O)OCc3ccncc3)C(=O)CCCCCCCCC3(OC)C=C/C(=C(/C(=O)OCc4ccncc4)C(=O)CCCCCCCC1)O3)O2", "growth", "%", 34.6),
    ("Clc1ccc2c(c1)C(c1c[nH]c3ccccc13)(c1c[nH]c3ccccc13)CCO2", "growth", "%", 76.6),
    ("COc1ccc(/C=C/C(=O)c2cc3c(N)c(C(=O)Nc4cccc5ccccc45)sc3nc2C)cc1", "growth", "%", 47.6),
    ("COc1ccc2c(c1OC)CO[C@@H]2[C@H]1c2c(cc3c(c2OC)OCO3)CCN1S(=O)(=O)c1cn(C)cn1", "growth", "%", 15.5),
    ("COc1cc(OC)c(NC(=O)c2cc3ccccc3cc2O)cc1Cl", "growth", "%", 31.1),
    ("OB1OCc2cc(/C=C/c3cccc(C(F)(F)F)c3)ccc21", "growth", "%", 23.3),
    ("O=C1Nc2ccccc2/C1=C/c1nc2ccccc2c(=O)[nH]1", "growth", "%", 93.4),
]
